Each recorded value in this set is attributed to ChEMBL document CHEMBL3046446.

System: Tetranychus urticae
Assay: Acaricidal activity against Tetranychus urticae (two-spotted spider mite) in kidney bean leaf assessed as mortality at 12.5 ppm at 25 degC measured after 5 days
Format: functional
Details: 120 h
assay-endpoint: mortality at 12.5 ppm (%)

{"columns": ["line-notation", "assay-endpoint", "units-text", "recorded-value"],
 "data": [
  ["Cc1nc(C)c(C(=O)NCc2ccc(C(C)(C)C)cc2)s1", "mortality at 12.5 ppm", "%", 0],
  ["Cc1ncsc1C(=O)NCc1ccc(C(C)(C)C)cc1", "mortality at 12.5 ppm", "%", 0],
  ["Cc1nn(C)cc1C(=O)NCc1ccc(C(C)(C)C)cc1", "mortality at 12.5 ppm", "%", 0],
  ["Cc1cc(C(=O)NCc2ccc(C(C)(C)C)cc2)n(C)n1", "mortality at 12.5 ppm", "%", 30],
  ["CCc1cc(C(=O)NCc2ccc(C(C)(C)C)cc2)nn1C", "mortality at 12.5 ppm", "%", 0],
  ["CCn1cc(C(=O)NCc2ccc(C(C)(C)C)cc2)c(C)n1", "mortality at 12.5 ppm", "%", 30],
  ["CCc1cc(C(=O)NCc2ccc(C(C)(C)C)cc2)n(C)n1", "mortality at 12.5 ppm", "%", 100],
  ["CCn1ncc(C(=O)NCc2ccc(C(C)(C)C)cc2)c1C", "mortality at 12.5 ppm", "%", 0],
  ["CCc1nc(C)c(C(=O)N(C)Cc2ccc(C(C)(C)C)cc2)s1", "mortality at 12.5 ppm", "%", 30],
  ["CCn1nc(C)cc1C(=O)NCc1ccc(C(C)(C)C)cc1", "mortality at 12.5 ppm", "%", 0]
]}
